# Particulars: in n-butanol, 288.15 K
Value Kind: solubility (mole fraction)

The molecule listed as `CCCc1nc(C(C)(C)O)c(C(=O)OCC)n1Cc1ccc(-c2ccccc2-c2nnnn2C(c2ccccc2)(c2ccccc2)c2ccccc2)cc1` shows solubility (mole fraction) equal to 0.000253

###

# Particulars: in ethanol, 303.15 K
Value Kind: solubility (mole fraction)
API doc: respond with a numeric literal and nothing else, no unit.

The compound listed as `CCCc1nc(C(C)(C)O)c(C(=O)OCC)n1Cc1ccc(-c2ccccc2-c2nnnn2C(c2ccccc2)(c2ccccc2)c2ccccc2)cc1` shows solubility (mole fraction) equal to 0.000206

###

# Particulars: in toluene, 318.15 K
Value Kind: solubility (mole fraction)
API doc: respond with a numeric literal and nothing else, no unit.

The molecule listed as `CCCc1nc(C(C)(C)O)c(C(=O)OCC)n1Cc1ccc(-c2ccccc2-c2nnnn2C(c2ccccc2)(c2ccccc2)c2ccccc2)cc1` shows solubility (mole fraction) equal to 0.0124

###

# Particulars: in isobutanol, 283.15 K
Value Kind: solubility (mole fraction)
API doc: respond with a numeric literal and nothing else, no unit.

The compound listed as `CCCc1nc(C(C)(C)O)c(C(=O)OCC)n1Cc1ccc(-c2ccccc2-c2nnnn2C(c2ccccc2)(c2ccccc2)c2ccccc2)cc1` shows solubility (mole fraction) equal to 0.000145

###

# Particulars: in n-propanol, 283.15 K
Value Kind: solubility (mole fraction)
API doc: respond with a numeric literal and nothing else, no unit.

The compound listed as `CCCc1nc(C(C)(C)O)c(C(=O)OCC)n1Cc1ccc(-c2ccccc2-c2nnnn2C(c2ccccc2)(c2ccccc2)c2ccccc2)cc1` shows solubility (mole fraction) equal to 0.000175

###

# Particulars: in cyclohexanone, 293.15 K
Value Kind: solubility (mole fraction)
API doc: respond with a numeric literal and nothing else, no unit.

The molecule listed as `CCCc1nc(C(C)(C)O)c(C(=O)OCC)n1Cc1ccc(-c2ccccc2-c2nnnn2C(c2ccccc2)(c2ccccc2)c2ccccc2)cc1` shows solubility (mole fraction) equal to 0.0112

###

# Particulars: in acetonitrile, 308.15 K
Value Kind: solubility (mole fraction)
API doc: respond with a numeric literal and nothing else, no unit.

The compound listed as `CCCc1nc(C(C)(C)O)c(C(=O)OCC)n1Cc1ccc(-c2ccccc2-c2nnnn2C(c2ccccc2)(c2ccccc2)c2ccccc2)cc1` shows solubility (mole fraction) equal to 0.000689

###

# Particulars: in n-butanol, 278.15 K
Value Kind: solubility (mole fraction)
API doc: respond with a numeric literal and nothing else, no unit.

The compound listed as `CCCc1nc(C(C)(C)O)c(C(=O)OCC)n1Cc1ccc(-c2ccccc2-c2nnnn2C(c2ccccc2)(c2ccccc2)c2ccccc2)cc1` shows solubility (mole fraction) equal to 0.000177

###

# Particulars: in n-butanol, 308.15 K
Value Kind: solubility (mole fraction)

The molecule listed as `CCCc1nc(C(C)(C)O)c(C(=O)OCC)n1Cc1ccc(-c2ccccc2-c2nnnn2C(c2ccccc2)(c2ccccc2)c2ccccc2)cc1` shows solubility (mole fraction) equal to 0.000458

###

# Particulars: in n-propanol, 303.15 K
Value Kind: solubility (mole fraction)
API doc: respond with a numeric literal and nothing else, no unit.

The compound listed as `CCCc1nc(C(C)(C)O)c(C(=O)OCC)n1Cc1ccc(-c2ccccc2-c2nnnn2C(c2ccccc2)(c2ccccc2)c2ccccc2)cc1` shows solubility (mole fraction) equal to 0.000346

###

# Particulars: in cyclohexanone, 308.15 K
Value Kind: solubility (mole fraction)
API doc: respond with a numeric literal and nothing else, no unit.

The molecule listed as `CCCc1nc(C(C)(C)O)c(C(=O)OCC)n1Cc1ccc(-c2ccccc2-c2nnnn2C(c2ccccc2)(c2ccccc2)c2ccccc2)cc1` shows solubility (mole fraction) equal to 0.0166

###

# Particulars: in DMAc, 303.15 K
Value Kind: solubility (mole fraction)
API doc: respond with a numeric literal and nothing else, no unit.

The molecule listed as `CCCc1nc(C(C)(C)O)c(C(=O)OCC)n1Cc1ccc(-c2ccccc2-c2nnnn2C(c2ccccc2)(c2ccccc2)c2ccccc2)cc1` shows solubility (mole fraction) equal to 0.01

###

# Particulars: in n-butanol, 313.15 K
Value Kind: solubility (mole fraction)
API doc: respond with a numeric literal and nothing else, no unit.

The compound listed as `CCCc1nc(C(C)(C)O)c(C(=O)OCC)n1Cc1ccc(-c2ccccc2-c2nnnn2C(c2ccccc2)(c2ccccc2)c2ccccc2)cc1` shows solubility (mole fraction) equal to 0.000521

###

# Particulars: in methanol, 283.15 K
Value Kind: solubility (mole fraction)

The compound listed as `CCCc1nc(C(C)(C)O)c(C(=O)OCC)n1Cc1ccc(-c2ccccc2-c2nnnn2C(c2ccccc2)(c2ccccc2)c2ccccc2)cc1` shows solubility (mole fraction) equal to 5.35e-05

###

# Particulars: in isopropanol, 313.15 K
Value Kind: solubility (mole fraction)
API doc: respond with a numeric literal and nothing else, no unit.

The compound listed as `CCCc1nc(C(C)(C)O)c(C(=O)OCC)n1Cc1ccc(-c2ccccc2-c2nnnn2C(c2ccccc2)(c2ccccc2)c2ccccc2)cc1` shows solubility (mole fraction) equal to 0.000197

###

# Particulars: in acetonitrile, 278.15 K
Value Kind: solubility (mole fraction)
API doc: respond with a numeric literal and nothing else, no unit.

The molecule listed as `CCCc1nc(C(C)(C)O)c(C(=O)OCC)n1Cc1ccc(-c2ccccc2-c2nnnn2C(c2ccccc2)(c2ccccc2)c2ccccc2)cc1` shows solubility (mole fraction) equal to 0.00027

###

# Particulars: in acetonitrile, 288.15 K
Value Kind: solubility (mole fraction)
API doc: respond with a numeric literal and nothing else, no unit.

The compound listed as `CCCc1nc(C(C)(C)O)c(C(=O)OCC)n1Cc1ccc(-c2ccccc2-c2nnnn2C(c2ccccc2)(c2ccccc2)c2ccccc2)cc1` shows solubility (mole fraction) equal to 0.000373

###

# Particulars: in DMF, 303.15 K
Value Kind: solubility (mole fraction)
API doc: respond with a numeric literal and nothing else, no unit.

The molecule listed as `CCCc1nc(C(C)(C)O)c(C(=O)OCC)n1Cc1ccc(-c2ccccc2-c2nnnn2C(c2ccccc2)(c2ccccc2)c2ccccc2)cc1` shows solubility (mole fraction) equal to 0.00337

###

# Particulars: in isobutanol, 313.15 K
Value Kind: solubility (mole fraction)
API doc: respond with a numeric literal and nothing else, no unit.

The compound listed as `CCCc1nc(C(C)(C)O)c(C(=O)OCC)n1Cc1ccc(-c2ccccc2-c2nnnn2C(c2ccccc2)(c2ccccc2)c2ccccc2)cc1` shows solubility (mole fraction) equal to 0.000408

###

# Particulars: in acetone, 288.15 K
Value Kind: solubility (mole fraction)
API doc: respond with a numeric literal and nothing else, no unit.

The compound listed as `CCCc1nc(C(C)(C)O)c(C(=O)OCC)n1Cc1ccc(-c2ccccc2-c2nnnn2C(c2ccccc2)(c2ccccc2)c2ccccc2)cc1` shows solubility (mole fraction) equal to 0.00115

###

# Particulars: in DMAc, 318.15 K
Value Kind: solubility (mole fraction)
API doc: respond with a numeric literal and nothing else, no unit.

The compound listed as `CCCc1nc(C(C)(C)O)c(C(=O)OCC)n1Cc1ccc(-c2ccccc2-c2nnnn2C(c2ccccc2)(c2ccccc2)c2ccccc2)cc1` shows solubility (mole fraction) equal to 0.0148

###

# Particulars: in isopropanol, 318.15 K
Value Kind: solubility (mole fraction)
API doc: respond with a numeric literal and nothing else, no unit.

The compound listed as `CCCc1nc(C(C)(C)O)c(C(=O)OCC)n1Cc1ccc(-c2ccccc2-c2nnnn2C(c2ccccc2)(c2ccccc2)c2ccccc2)cc1` shows solubility (mole fraction) equal to 0.000228

###

# Particulars: in ethyl acetate, 278.15 K
Value Kind: solubility (mole fraction)

The compound listed as `CCCc1nc(C(C)(C)O)c(C(=O)OCC)n1Cc1ccc(-c2ccccc2-c2nnnn2C(c2ccccc2)(c2ccccc2)c2ccccc2)cc1` shows solubility (mole fraction) equal to 0.00177

###

# Particulars: in ethanol, 293.15 K
Value Kind: solubility (mole fraction)
API doc: respond with a numeric literal and nothing else, no unit.

The compound listed as `CCCc1nc(C(C)(C)O)c(C(=O)OCC)n1Cc1ccc(-c2ccccc2-c2nnnn2C(c2ccccc2)(c2ccccc2)c2ccccc2)cc1` shows solubility (mole fraction) equal to 0.000147

###

# Particulars: in acetone, 298.15 K
Value Kind: solubility (mole fraction)
API doc: respond with a numeric literal and nothing else, no unit.

The compound listed as `CCCc1nc(C(C)(C)O)c(C(=O)OCC)n1Cc1ccc(-c2ccccc2-c2nnnn2C(c2ccccc2)(c2ccccc2)c2ccccc2)cc1` shows solubility (mole fraction) equal to 0.00197

###

# Particulars: in n-butanol, 298.15 K
Value Kind: solubility (mole fraction)
API doc: respond with a numeric literal and nothing else, no unit.

The compound listed as `CCCc1nc(C(C)(C)O)c(C(=O)OCC)n1Cc1ccc(-c2ccccc2-c2nnnn2C(c2ccccc2)(c2ccccc2)c2ccccc2)cc1` shows solubility (mole fraction) equal to 0.000348

###

# Particulars: in toluene, 283.15 K
Value Kind: solubility (mole fraction)
API doc: respond with a numeric literal and nothing else, no unit.

The compound listed as `CCCc1nc(C(C)(C)O)c(C(=O)OCC)n1Cc1ccc(-c2ccccc2-c2nnnn2C(c2ccccc2)(c2ccccc2)c2ccccc2)cc1` shows solubility (mole fraction) equal to 0.0032
